Each entry below lists one item and its recorded TGI value.
# System: CCRF-CEM leukemia
# TEST NAME: NCI tumour cell line growth inhibition, 48 h

# annotated cases, reported TGI shown
COC(=O)c1cc2cc(OC)c(OC)cc2cc(C(=O)OC)c1=O; > 100 µM
C=C(C(=O)OC1C(CO)OC(OCC2CC[C@@H]3C[C@]4(OC(=O)C3=C)C(C)=CC(=O)C24)C(O)C1O)[C@@H]1CCC(CO)C2C(=O)C=C(C)[C@@]2(O)C1 (stereo not given in full); 1.3 µM
O=c1c(Br)c(-c2ccccc2)[nH]c2ccccc12; > 100 µM
CCCCC1C=Cn2c(=O)oc3c(OC(C)C)c(OC(C)C)c(O)c1c32 (stereo not given); 25.6 µM
CC(C)(C)N1C(=O)N=[N+](/C(=C(\c2ccccc2)n2nc([O-])n(C(C)(C)C)c2=O)c2ccccc2)C1=O; > 100 µM

Using CCRF-CEM leukemia as the test system, report measured TGI of CC(C)CC(N=Cc1nc(-c2ccccc2)oc1O)C(=O)O (stereo not given) .
> 100 µM

Using CCRF-CEM leukemia as the test system, report measured TGI of Cn1cc(C2=C(c3cn(C)c4ccc(OCc5ccccc5)cc34)C(=O)NC2=O)c2ccccc21 .
> 25 µM

Using CCRF-CEM leukemia as the test system, report measured TGI of COc1ccccc1N1CCN(CC(O)COc2c(Br)c(Br)c(Br)c3c2OC(C)(C)C3)CC1 (stereo not given) .
> 100 µM
